These entries and their values trace back to ChEMBL document CHEMBL1157210.

# Species on record: Rattus norvegicus
# assay_method_text: Activity at rat GABAA alpha-1-beta-2-gamma-2L receptor expressed in Xenopus laevis assessed as ratio of current in drug-treated to GABA-treated oocyte at 10 uM by electrophysiology
value_kind: Ratio
// no unit string in output, number only

Query: Report measured Ratio; entry is `C[C@@]12CC[C@H](O)C[C@@H]1CC[C@@H]1[C@@H]2CC[C@@]2(C)C(=O)CC[C@@H]12`
Reply: 0.09

Query: Report measured Ratio; entry is `C[C@@]12CC[C@H](O)C[C@H]1CC[C@@H]1[C@@H]2CC[C@]2(C)[C@H]1CC[C@]21CO1`
Reply: 0.1

Query: Report measured Ratio; entry is `CC(=O)[C@H]1CC[C@H]2[C@@H]3CC[C@@H]4C[C@H](O)CC[C@]4(C)[C@H]3CC[C@]12C`
Reply: 0.06

Query: Report measured Ratio; entry is `C[C@@]12CC[C@H](O)C[C@H]1CC[C@@H]1[C@@H]2CC[C@@]2(C)C(=O)CC[C@@H]12`
Reply: 0.03

Query: Report measured Ratio; entry is `CC(=O)[C@@H]1CC[C@H]2[C@@H]3CC[C@@H]4C[C@@H](O)CC[C@@]4(C)[C@H]3CC[C@@]12C`
Reply: 0.02

Query: Report measured Ratio; entry is `CC(=O)[C@@H]1CC[C@H]2[C@@H]3CC[C@H]4C[C@@H](O)CC[C@@]4(C)[C@H]3CC[C@@]12C`
Reply: 0.06
